system: VCaP (Prostate Carcinoma); assay: combination Emax (second highest fraction inhibited in the dose matrix, 72 h); higher = more inhibition; extreme values may be limits of the assay
Known combination Emax of a selection of compounds

COMPOUND | combination Emax
Cc1cc2ncnn2cc1Nc1ncc2c(n1)n(C1CCOCC1)c(=O)n2C [AZD7648] + COc1cc([C@@H]2c3cc4c(cc3[C@@H](O[C@@H]3O[C@@H]5CO[C@@H](C)O[C@H]5[C@H](O)[C@H]3O)[C@H]3COC(=O)[C@H]23)OCO4)cc(OC)c1O [Etoposide] (first compound max 10 µM, 7x7, partner max 10 µM) | 0.579
COc1cc2c(cc1OCCCCCOc1cc3c(cc1OC)C(=O)N1C=C(C)C[C@H]1C=N3)N=C[C@@H]1CC(C)=CN1C2=O [SG3199] + O=C(c1cc(Cc2n[nH]c(=O)c3ccccc23)ccc1F)N1CCN(C(=O)C2CC2)CC1 [Olaparib] (first compound max 0.001 µM, 7x7, partner max 10 µM) | 0.0785
O=C(c1cc(Cc2n[nH]c(=O)c3ccccc23)ccc1F)N1CCN(C(=O)C2CC2)CC1 [Olaparib] + COc1nnc2ccc(N3CCC(c4ccc(OCCN5CCN(C)C(=O)[C@H]5C)cc4)CC3)nn12 [AZD5153] (first compound max 10 µM, 7x7, partner max 1 µM) | 0.707
C=CCn1c(=O)c2cnc(Nc3ccc(N4CCN(C)CC4)cc3)nc2n1-c1cccc(C(C)(C)O)n1 [AZD1775] + O=C(c1cc(Cc2n[nH]c(=O)c3ccccc23)ccc1F)N1CCN(C(=O)C2CC2)CC1 [Olaparib] (first compound max 1 µM, partner max 10 µM) | 0.631

----------
test system: A549 (Lung Adenocarcinoma); assay: combination Emax (second highest fraction inhibited in the dose matrix, 72 h); higher = more inhibition; extreme values may be limits of the assay
Classification field: 1 (yes) = combination Emax at or over 0.6; 0 (no) = combination Emax under 0.6.

MOLECULE | CLASS_ASSIGNMENT
Cc1c2c(nn1C)CSCc1cc(n(C)n1)CSc1cc(c3ccccc3c1)OCCCc1c(C(=O)O)n(C)c3c-2c(Cl)ccc13 [AZD5991] + CN(C)CCCOc1ccc(-c2ccc3ncc4c(c3c2)n(C2CCOCC2)c(=O)n4C)cn1 [AZD0156] (first compound max 1 µM, 7x7, partner max 1 µM) | 0 (no)
CN(C)CCCOc1ccc(-c2ccc3ncc4c(c3c2)n(C2CCOCC2)c(=O)n4C)cn1 [AZD0156] + O=C(c1cc(Cc2n[nH]c(=O)c3ccccc23)ccc1F)N1CCN(C(=O)C2CC2)CC1 [Olaparib] (first compound max 3 µM, partner max 3 µM) | 0 (no)
Cn1cnc2c(F)c(Nc3ccc(Br)cc3Cl)c(C(=O)NOCCO)cc21 [Selumetinib] + CC(C)n1c(=O)n(C)c2cnc3cc(F)c(-c4ccc(OCCCN5CCCCC5)nc4)cc3c21 [AZD1390] (first compound max 10 µM, 7x7, partner max 0.3 µM) | 1 (yes)
CCN(CCO)CCCOc1ccc2c(Nc3cc(CC(=O)Nc4cccc(F)c4)[nH]n3)ncnc2c1 [AZD2811] + O=C(c1cc(Cc2n[nH]c(=O)c3ccccc23)ccc1F)N1CCN(C(=O)C2CC2)CC1 [Olaparib] (first compound max 1 µM, 7x7, partner max 10 µM) | 0 (no)
CC1(C)CCC(CN2CCN(c3ccc(C(=O)NS(=O)(=O)c4ccc(NCC5CCOCC5)c([N+](=O)[O-])c4)c(Oc4cnc5[nH]ccc5c4)c3)CC2)=C(c2ccc(Cl)cc2)C1 [Venetoclax] + CCN(CCO)CCCOc1ccc2c(Nc3cc(CC(=O)Nc4cccc(F)c4)[nH]n3)ncnc2c1 [AZD2811] (first compound max 1 µM, 7x7, partner max 1 µM) | 0 (no)
CN(CCO)CC[C@H](CSc1ccccc1)Nc1ccc(S(=O)(=O)NC(=O)c2ccc(N3CCC([C@@H](O)c4ccccc4-c4ccc(Cl)cc4)CC3)cc2)cc1S(=O)(=O)C(F)(F)F [AZD4320] + C1CN(CCC1(C(=O)N[C@@H](CCO)C2=CC=C(C=C2)Cl)N)C3=NC=NC4=C3C=CN4 [Capivasertib] (first compound max 1 µM, 7x7, partner max 3 µM) | 0 (no)
CCN(CCO)CCCOc1ccc2c(Nc3cc(CC(=O)Nc4cccc(F)c4)[nH]n3)ncnc2c1 [AZD2811] + C[C@@H]1COCCN1C2=NC(=NC(=C2)C3(CC3)[S@](=N)(=O)C)C4=C5C=CNC5=NC=C4 [AZD6738] (first compound max 1 µM, 7x7, partner max 10 µM) | 1 (yes)

These data points were gathered from the supplement of paper PMC11061612.
